Values from patent US20230242624A1

# SYSTEM_UNDER_TEST: recombinant SARS-CoV Spike protein (RBD, His tag) (SARS-CoV, UniProt P59594 306-527)
# PROTOCOL_SUMMARY: iQue flow cytometry, antigen-coated beads
Measured EC50, listed per entry for reference.
MEASURED_ATTRIBUTE: EC50 (nM)

[
  {
    "BINDER": "NI-607.532_F9 (antibody, V domains shown) VH: EVQLVESGGNLIQPGGSLRLSCAASGFTVSSNYMSWVRQAPGKGLEWVSVIYSGGSTYYADSVKGRFTISRDNSRNTLYLQMNSLRAEDTAVYFCARDRVVRGVRGNGMDVWGQGTTVTVSS VL: AIRMTQSPSSLSASVGDRVTITCQASQDINIYLNWYQQRPGKAPKLLIYDASNLETGVPSRFSGSGSGTDFTFTISSLQPEDIATYYCHQYDNLPRTFGQGTKVDIK",
    "MEASURED_ATTRIBUTE": "EC50",
    "ENDPOINT_RESULT": 1000
  },
  {
    "BINDER": "NI-607.274_E5 (antibody, V domains shown) VH: EVQLVESGGGMVQPGRSLRLSCAGSGFTFSTHGMHWVRQAPGKGLEWITGITYDGSDEFYADSVKGRFTIARDNSKNMLYLQMNSLRAEDTAVYFCAKDLEWLTNYVDHWGQGTLVTVSS VL: DIVMTQSPGTLSVSPGERATLSCRASQSVNYNLAWYQQKPGQAPRLLIFDASTRATGIPARFTGSGSGTEFTLTISSLQSEDFAVYYCQQSNAWLTFGGGTKLEIK",
    "MEASURED_ATTRIBUTE": "EC50",
    "ENDPOINT_RESULT": 900
  },
  {
    "BINDER": "NI-607.791_B10 (antibody, V domains shown) VH: QVQLQQWGAGLLKPSETLSRTCAVYGGSFSDYYWSWIRQPPGKGLEWIGEVNHRGVTNYNPSLKSRVTISIDTSKSQFSLELRSVTDADTALYFCARSPFWTIAARPFDYWGRGTLVTVSS VL: EIVMTQSPGTLSLSPGERATLSCRASQSVISNYLAWYQQKPGQAPRFLIYAASTRARGIPDRFSGSGSGTDFTLTISRLEAEDFAVYYCQQYGNSPLTFGGGTKLEIK",
    "MEASURED_ATTRIBUTE": "EC50",
    "ENDPOINT_RESULT": 400
  },
  {
    "BINDER": "NI-607.529_G4 (antibody, V domains shown) VH: QVQLQQWGAGLLKPSETLSLTCAVYGGSFSGYYWSWIRQPPGKGLEWIGEINHSGSTNYNPSLKSRVTISVDTSKNQFSLKLSSVTAADTAVYYCARASLYYSDSSGYSHPYYFDYWGQGTLVTVSS VL: QPVLTQPPSVSGAPGQRVTISCTGSSSNIGAGYDVHWYQQLPGTAPKLLIYGNSNRPSGVPDRFSGSKSGMSASLAITGLQAEDEADYYCQSYDSSLSGWVFGGGTKLTVL",
    "MEASURED_ATTRIBUTE": "EC50",
    "ENDPOINT_RESULT": 10
  },
  {
    "BINDER": "NI-607.820_B7 (antibody, V domains shown) VH: EVQLVESGGGLVQPGRSLRLSCAASGFTFDDFDMHWVRQAPGKGLEWVSGVTWNSGIIGYADSVKGRFTISRDNAKNSLYLQMNSLRAEDTALYYCAKEFYPRYGSGIRSHYFGMDVWGQGTTVTVSS VL: QSVLTQSPSASGTPGQRVTISCSGSSSNVGSNAVNWYQQLPGTAPKLLIYSNNRRPSGVPNRFSGSKSGTSASLAISGLQSDDEADYYCAAWDDSLDGPTFGGGTKLTVL",
    "MEASURED_ATTRIBUTE": "EC50",
    "ENDPOINT_RESULT": 800
  }
]
